protocol_summary: Selectivity index, ratio of CC50 for human Hep2 cells to IC50 for Poliovirus 1 infected in human Hep2 cells
Format: toxicity, cell-based
settings: HEp-2 cells, read-out: Ratio CC50/IC50
With a cut-off of 100, any selectivity ratio strictly below it is called criterion met; any selectivity ratio meeting it or above is called criterion not met.

Look over these answered cases.
* N#Cc1cc([N+](=O)[O-])ccc1Oc1ccc(F)c(F)c1 | criterion not met
* N#Cc1cc([N+](=O)[O-])ccc1Oc1c(F)cccc1F | criterion met
* N#Cc1cc([N+](=O)[O-])ccc1Oc1ccc(Cl)c(Cl)c1 | criterion met
* N#Cc1cc([N+](=O)[O-])ccc1Oc1c(F)cc(F)cc1F | criterion not met

Now look at this one.
In plain terms, does N#Cc1cc([N+](=O)[O-])ccc1N1C[C@@H]2C[C@H](C1)c1cccc(=O)n1C2 come in under 100 for selectivity ratio?
criterion met
